# System: Staphylococcus haemolyticus
# protocol: Antimicrobial activity against vancomycin-intermediate Staphylococcus haemolyticus after 24 hrs by microdilution method
# Type: functional
Overview of recorded MBC50 for various molecules
The reply should be a number in µg/mL, with the unit left off.

CN[C@H](CC(C)C)C(=O)N[C@H]1C(=O)N[C@@H](CC(N)=O)C(=O)N[C@H]2C(=O)N[C@H]3C(=O)N[C@H](C(=O)N[C@H](C(=O)O)c4cc(O)cc(O)c4-c4cc3ccc4O)[C@H](O)c3ccc(c(Cl)c3)Oc3cc2cc(c3O[C@@H]2O[C@H](CO)[C@@H](O)[C@H](O)[C@H]2O[C@H]2C[C@](C)(N)[C@H](O)[C@H](C)O2)Oc2ccc(cc2Cl)[C@H]1O: 4

Which MBC50 is reported for this molecule? `CN[C@H](CC(C)C)C(=O)N[C@H]1C(=O)N[C@@H](CC(N)=O)C(=O)N[C@H]2C(=O)N[C@H]3C(=O)N[C@H](C(=O)N[C@H](C(=O)NCCCO/N=C(\C(=O)N[C@@H]4C(=O)N5C(C(=O)[O-])=C(C[n+]6ccccc6)CS[C@H]45)c4nc(N)sc4Cl)c4cc(O)cc(O)c4-c4cc3ccc4O)[C@H](O)c3ccc(c(Cl)c3)Oc3cc2cc(c3O[C@@H]2O[C@H](CO)[C@@H](O)[C@H](O)[C@H]2O[C@H]2C[C@](C)(N)[C@H](O)[C@H](C)O2)Oc2ccc(cc2Cl)[C@H]1O`
0.06

Look up MBC50 for this molecule: `CC(=O)NC[C@H]1CN(c2ccc(N3CCOCC3)c(F)c2)C(=O)O1`
8

May I ask what MBC50 has been recorded for `CCCCCCCCCC(=O)N[C@@H](Cc1c[nH]c2ccccc12)C(=O)N[C@H](CC(N)=O)C(=O)N[C@@H](CC(=O)O)C(=O)N[C@@H]1C(=O)NCC(=O)N[C@@H](CCCN)C(=O)N[C@@H](CC(=O)O)C(=O)N[C@H](C)C(=O)N[C@@H](CC(=O)O)C(=O)NCC(=O)N[C@H](CO)C(=O)N[C@@H]([C@H](C)CC(=O)O)C(=O)N[C@@H](CC(=O)c2ccccc2N)C(=O)O[C@@H]1C` ?
1

---

# Tested on: Staphylococcus aureus
# protocol: Antimicrobial activity against vancomycin-resistant Staphylococcus aureus isolate MI after 24 hrs by microdilution method
# Type: functional
assay metric: MIC (µg/mL)
// units = µg/mL; emit number, no label

Sample records with MIC:
CN[C@H](CC(C)C)C(=O)N[C@H]1C(=O)N[C@@H](CC(N)=O)C(=O)N[C@H]2C(=O)N[C@H]3C(=O)N[C@H](C(=O)N[C@H](C(=O)NCCCO/N=C(\C(=O)N[C@@H]4C(=O)N5C(C(=O)[O-])=C(C[n+]6ccccc6)CS[C@H]45)c4nc(N)sc4Cl)c4cc(O)cc(O)c4-c4cc3ccc4O)[C@H](O)c3ccc(c(Cl)c3)Oc3cc2cc(c3O[C@@H]2O[C@H](CO)[C@@H](O)[C@H](O)[C@H]2O[C@H]2C[C@](C)(N)[C@H](O)[C@H](C)O2)Oc2ccc(cc2Cl)[C@H]1O: 0.25
CCCCCCCCCC(=O)N[C@@H](Cc1c[nH]c2ccccc12)C(=O)N[C@H](CC(N)=O)C(=O)N[C@@H](CC(=O)O)C(=O)N[C@@H]1C(=O)NCC(=O)N[C@@H](CCCN)C(=O)N[C@@H](CC(=O)O)C(=O)N[C@H](C)C(=O)N[C@@H](CC(=O)O)C(=O)NCC(=O)N[C@H](CO)C(=O)N[C@@H]([C@H](C)CC(=O)O)C(=O)N[C@@H](CC(=O)c2ccccc2N)C(=O)O[C@@H]1C: 0.25
CN[C@H](CC(C)C)C(=O)N[C@H]1C(=O)N[C@@H](CC(N)=O)C(=O)N[C@H]2C(=O)N[C@H]3C(=O)N[C@H](C(=O)N[C@H](C(=O)O)c4cc(O)cc(O)c4-c4cc3ccc4O)[C@H](O)c3ccc(c(Cl)c3)Oc3cc2cc(c3O[C@@H]2O[C@H](CO)[C@@H](O)[C@H](O)[C@H]2O[C@H]2C[C@](C)(N)[C@H](O)[C@H](C)O2)Oc2ccc(cc2Cl)[C@H]1O [VANCOMYCIN]: 1020

With those in mind, consider the next molecule.
What MIC value was documented for this molecule, CC(=O)NC[C@H]1CN(c2ccc(N3CCOCC3)c(F)c2)C(=O)O1 [LINEZOLID] ?
1

---

Below, each entry is listed alongside its reported MIC50.
# Test system: Staphylococcus haemolyticus
# protocol: Antimicrobial activity against vancomycin-intermediate Staphylococcus haemolyticus after 24 hrs by microdilution method
# Assay type: functional
# condition parameters: Staphylococcus haemolyticus, 24 h
Field: numeric (µg/mL). Do not append units.

Look over these answered cases.
CCCCCCCCCC(=O)N[C@@H](Cc1c[nH]c2ccccc12)C(=O)N[C@H](CC(N)=O)C(=O)N[C@@H](CC(=O)O)C(=O)N[C@@H]1C(=O)NCC(=O)N[C@@H](CCCN)C(=O)N[C@@H](CC(=O)O)C(=O)N[C@H](C)C(=O)N[C@@H](CC(=O)O)C(=O)NCC(=O)N[C@H](CO)C(=O)N[C@@H]([C@H](C)CC(=O)O)C(=O)N[C@@H](CC(=O)c2ccccc2N)C(=O)O[C@@H]1C: 1
CN[C@H](CC(C)C)C(=O)N[C@H]1C(=O)N[C@@H](CC(N)=O)C(=O)N[C@H]2C(=O)N[C@H]3C(=O)N[C@H](C(=O)N[C@H](C(=O)O)c4cc(O)cc(O)c4-c4cc3ccc4O)[C@H](O)c3ccc(c(Cl)c3)Oc3cc2cc(c3O[C@@H]2O[C@H](CO)[C@@H](O)[C@H](O)[C@H]2O[C@H]2C[C@](C)(N)[C@H](O)[C@H](C)O2)Oc2ccc(cc2Cl)[C@H]1O: 4
CC(=O)NC[C@H]1CN(c2ccc(N3CCOCC3)c(F)c2)C(=O)O1: 2

// next item, MIC50 requested
Record `CN[C@H](CC(C)C)C(=O)N[C@H]1C(=O)N[C@@H](CC(N)=O)C(=O)N[C@H]2C(=O)N[C@H]3C(=O)N[C@H](C(=O)N[C@H](C(=O)NCCCO/N=C(\C(=O)N[C@@H]4C(=O)N5C(C(=O)[O-])=C(C[n+]6ccccc6)CS[C@H]45)c4nc(N)sc4Cl)c4cc(O)cc(O)c4-c4cc3ccc4O)[C@H](O)c3ccc(c(Cl)c3)Oc3cc2cc(c3O[C@@H]2O[C@H](CO)[C@@H](O)[C@H](O)[C@H]2O[C@H]2C[C@](C)(N)[C@H](O)[C@H](C)O2)Oc2ccc(cc2Cl)[C@H]1O` : what is its MIC50 with Staphylococcus haemolyticus?
0.06

---

# protocol: Half life of healthy human
# Type: ADME, organism-based
# condition parameters: in vivo
assay metric: half-life (h)
Lab book: enter the figure in h, no units written.

May I ask what half-life has been recorded for `CN[C@H](CC(C)C)C(=O)N[C@H]1C(=O)N[C@@H](CC(N)=O)C(=O)N[C@H]2C(=O)N[C@H]3C(=O)N[C@H](C(=O)N[C@H](C(=O)NCCCO/N=C(\C(=O)N[C@@H]4C(=O)N5C(C(=O)[O-])=C(C[n+]6ccccc6)CS[C@H]45)c4nc(N)sc4Cl)c4cc(O)cc(O)c4-c4cc3ccc4O)[C@H](O)c3ccc(c(Cl)c3)Oc3cc2cc(c3O[C@@H]2O[C@H](CO)[C@@H](O)[C@H](O)[C@H]2O[C@H]2C[C@](C)(N)[C@H](O)[C@H](C)O2)Oc2ccc(cc2Cl)[C@H]1O` ?
6.8

---

# System: Staphylococcus aureus
# protocol: Antimicrobial activity against vancomycin-intermediate Staphylococcus aureus isolate MU50 assessed as bacterial count at 4 times MIC after 24 hrs by colony counting method
# Assay type: functional
Listed here: items and their measured log10CFU/ml.
Kindly provide the number alone.

CN[C@H](CC(C)C)C(=O)N[C@H]1C(=O)N[C@@H](CC(N)=O)C(=O)N[C@H]2C(=O)N[C@H]3C(=O)N[C@H](C(=O)N[C@H](C(=O)NCCCO/N=C(\C(=O)N[C@@H]4C(=O)N5C(C(=O)[O-])=C(C[n+]6ccccc6)CS[C@H]45)c4nc(N)sc4Cl)c4cc(O)cc(O)c4-c4cc3ccc4O)[C@H](O)c3ccc(c(Cl)c3)Oc3cc2cc(c3O[C@@H]2O[C@H](CO)[C@@H](O)[C@H](O)[C@H]2O[C@H]2C[C@](C)(N)[C@H](O)[C@H](C)O2)Oc2ccc(cc2Cl)[C@H]1O: 3.77
CN[C@H](CC(C)C)C(=O)N[C@H]1C(=O)N[C@@H](CC(N)=O)C(=O)N[C@H]2C(=O)N[C@H]3C(=O)N[C@H](C(=O)N[C@H](C(=O)O)c4cc(O)cc(O)c4-c4cc3ccc4O)[C@H](O)c3ccc(c(Cl)c3)Oc3cc2cc(c3O[C@@H]2O[C@H](CO)[C@@H](O)[C@H](O)[C@H]2O[C@H]2C[C@](C)(N)[C@H](O)[C@H](C)O2)Oc2ccc(cc2Cl)[C@H]1O: 2.71
CC(=O)NC[C@H]1CN(c2ccc(N3CCOCC3)c(F)c2)C(=O)O1: 3.19

Shift focus to the following entry.
I'd like to know its log10CFU/ml. The compound in question is `CCCCCCCCCC(=O)N[C@@H](Cc1c[nH]c2ccccc12)C(=O)N[C@H](CC(N)=O)C(=O)N[C@@H](CC(=O)O)C(=O)N[C@@H]1C(=O)NCC(=O)N[C@@H](CCCN)C(=O)N[C@@H](CC(=O)O)C(=O)N[C@H](C)C(=O)N[C@@H](CC(=O)O)C(=O)NCC(=O)N[C@H](CO)C(=O)N[C@@H]([C@H](C)CC(=O)O)C(=O)N[C@@H](CC(=O)c2ccccc2N)C(=O)O[C@@H]1C`
3.02
